Source of measurements: BigSolDB 2.1

Conditions: in n-pentanol, 333.25 K
measure_name: solubility (mole fraction)

// fetch solubility (mole fraction) given entry `COC(=O)/C=C(\C)N[C@@H](C(=O)[O-])c1ccc(O)cc1.[K+]`
0.000226

----------
Conditions: in ethanol, 303.25 K
measure_name: solubility (mole fraction)
Respond numerically, and do not add a unit to the figure.

// fetch solubility (mole fraction) given entry `COC(=O)/C=C(\C)N[C@@H](C(=O)[O-])c1ccc(O)cc1.[K+]`
0.000478

----------
Conditions: in ethanol, 313.09 K
measure_name: solubility (mole fraction)

// fetch solubility (mole fraction) given entry `COC(=O)/C=C(\C)N[C@@H](C(=O)[O-])c1ccc(O)cc1.[K+]`
0.00056

----------
Settings: in sec-butanol, 343.23 K
measure_name: solubility (mole fraction)

// fetch solubility (mole fraction) given entry `COC(=O)/C=C(\C)N[C@@H](C(=O)[O-])c1ccc(O)cc1.[K+]`
0.000197

----------
Conditions: in sec-butanol, 338.28 K
measure_name: solubility (mole fraction)

// fetch solubility (mole fraction) given entry `COC(=O)/C=C(\C)N[C@@H](C(=O)[O-])c1ccc(O)cc1.[K+]`
0.000174

----------
Conditions: in n-butanol, 308.19 K
measure_name: solubility (mole fraction)
Respond numerically, and do not add a unit to the figure.

// fetch solubility (mole fraction) given entry `COC(=O)/C=C(\C)N[C@@H](C(=O)[O-])c1ccc(O)cc1.[K+]`
0.000139

----------
Conditions: in methanol, 298.22 K
measure_name: solubility (mole fraction)

// fetch solubility (mole fraction) given entry `COC(=O)/C=C(\C)N[C@@H](C(=O)[O-])c1ccc(O)cc1.[K+]`
0.0037

----------
Settings: in n-butanol, 302.95 K
measure_name: solubility (mole fraction)

// fetch solubility (mole fraction) given entry `COC(=O)/C=C(\C)N[C@@H](C(=O)[O-])c1ccc(O)cc1.[K+]`
0.000122

----------
Details: in ethanol, 323.11 K
measure_name: solubility (mole fraction)
Respond numerically, and do not add a unit to the figure.

// fetch solubility (mole fraction) given entry `COC(=O)/C=C(\C)N[C@@H](C(=O)[O-])c1ccc(O)cc1.[K+]`
0.000681

----------
Conditions: in ethanol, 338.31 K
measure_name: solubility (mole fraction)
Respond numerically, and do not add a unit to the figure.

// fetch solubility (mole fraction) given entry `COC(=O)/C=C(\C)N[C@@H](C(=O)[O-])c1ccc(O)cc1.[K+]`
0.000916

----------
Settings: in n-propanol, 343.35 K
measure_name: solubility (mole fraction)

// fetch solubility (mole fraction) given entry `COC(=O)/C=C(\C)N[C@@H](C(=O)[O-])c1ccc(O)cc1.[K+]`
0.000476

----------
Settings: in sec-butanol, 303.05 K
measure_name: solubility (mole fraction)
Respond numerically, and do not add a unit to the figure.

// fetch solubility (mole fraction) given entry `COC(=O)/C=C(\C)N[C@@H](C(=O)[O-])c1ccc(O)cc1.[K+]`
5.87e-05

----------
Settings: in n-pentanol, 303.25 K
measure_name: solubility (mole fraction)

// fetch solubility (mole fraction) given entry `COC(=O)/C=C(\C)N[C@@H](C(=O)[O-])c1ccc(O)cc1.[K+]`
0.000119

----------
Details: in n-butanol, 342.95 K
measure_name: solubility (mole fraction)
Respond numerically, and do not add a unit to the figure.

// fetch solubility (mole fraction) given entry `COC(=O)/C=C(\C)N[C@@H](C(=O)[O-])c1ccc(O)cc1.[K+]`
0.000339
